Tested on: S. aureus 101
Test: MIC determination
Format: cell-based, Staphylococcus aureus
Conditions: Staphylococcus aureus, 101, 18 h; read-out: Minimum inhibitory concentrations (MIC)
quantity-name: MIC

{"structure-notation": "CO/N=C(\\C(=O)N[C@@H]1C(=O)N2C(C(=O)O)=C(COC(C)=O)CS[C@H]12)c1csc(N)n1", "quantity-name": "MIC", "result": "32 µg/mL"}

The molecule `[H]/N=C(/N)N[C@H]1[C@H](O)[C@@H](O)[C@H](O[C@@H]2O[C@@H](C)[C@](O)(C=O)[C@H]2O[C@@H]2O[C@@H](CO)[C@H](O)[C@@H](O)[C@@H]2NC)[C@@H](N/C(N)=N\[H])[C@@H]1O` on S. aureus 101: MIC was 8 µg/mL

The molecule `CC[C@H]1OC(=O)[C@H](C)[C@@H](O[C@H]2C[C@@](C)(OC)[C@@H](O)[C@H](C)O2)[C@H](C)[C@@H](O[C@@H]2O[C@H](C)C[C@H](N(C)C)[C@H]2O)[C@](C)(O)C[C@@H](C)C(=O)[C@H](C)[C@@H](O)[C@]1(C)O` on S. aureus 101: MIC was > 128 µg/mL

The molecule `O=C(N[C@H](CO)[C@H](O)c1ccc([N+](=O)[O-])cc1)C(Cl)Cl` on S. aureus 101: MIC was 64 µg/mL

The molecule `CC[C@H]1OC(=O)[C@H](C)[C@@H](O[C@H]2C[C@@](C)(OC)[C@@H](O)[C@H](C)O2)[C@H](C)[C@@H](O[C@@H]2O[C@H](C)C[C@H](N(C)C)[C@H]2O)[C@](C)(O)C[C@@H](C)/C(=N\OCOCCOC)[C@H](C)[C@@H](O)[C@]1(C)O` on S. aureus 101: MIC was > 128 µg/mL

The molecule `CO[C@@H]1[C@@H](OC(N)=O)[C@@H](O)[C@H](Oc2ccc3c(O)c(NC(=O)c4ccc(O)c(CC=C(C)C)c4)c(=O)oc3c2C)OC1(C)C` on S. aureus 101: MIC was 0.25 µg/mL

The molecule `NC[C@H]1O[C@H](O[C@H]2[C@H](O)[C@@H](O[C@H]3O[C@H](CO)[C@@H](O)[C@H](N)[C@H]3O)[C@H](N)C[C@@H]2N)[C@H](O)[C@@H](O)[C@@H]1O` on S. aureus 101: MIC was > 128 µg/mL
